B1: ALDH8A1 (parent)
chain: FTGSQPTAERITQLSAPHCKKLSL

Variants of: B1
Experiment: protein stability index of a GFP-peptide fusion (GPS, HEK-293T) (PSI 1-6); higher = more stable;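 note: lentivirally expressed fusions sorted by FACS into six bins by GFP to DsRed ratio, PSI derived from sequencing read proportions per bin multiplied by bin number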
Settings: c terminus: a fixed tail appended
The entries below are paired with their reported protein stability index.
Form field (numeric): enter value without unit.

>  <mutation.label>
K21Q

>  <reported.value>
2.23

$$$$

Which protein stability index reading was recorded for the variant P6G ?
1.96

Which protein stability index reading was recorded for the variant L22Q ?
2.68

Which protein stability index reading was recorded for the variant L22I ?
2.76

Which protein stability index reading was recorded for the variant T2L ?
2.74

Which protein stability index reading was recorded for the variant A16D ?
2.52

Which protein stability index reading was recorded for the variant L14H ?
2.58

Which protein stability index reading was recorded for the variant T12C ?
1.83

Which protein stability index reading was recorded for the variant Q5I ?
2.39

Which protein stability index reading was recorded for the variant G3L ?
2.6

Which protein stability index reading was recorded for the variant F1M ?
3.62
